assay: Uterine and vaginal weight in ovariectomized BALB/c mice treated orally for 9 days with or without estrone (Example 3); type: in vivo; conditions: OVX mice, absence of estrone, 10 μg daily (no-effect statements: 1 μg and 10 μg)
The reader will find reported stimulation of vaginal weight (estrogenic effect) values listed item by item below.
MEASURED PARAMETER: stimulation of vaginal weight (estrogenic effect)

compound=Cl.O=C(c1ccc(OCCN2CCCCC2)cc1)c1c(-c2ccc(O)cc2)sc2cc(O)ccc12 measured=56%
compound="Oc1ccc2c(c1)CC[C@H](c1ccccc1)[C@@H]2c1ccc(OCCN2CCCC2)cc1 [Lasofoxifene (free base)]" measured=73%

====

The reader will find reported progressing tumors, number of total values listed item by item below.
system: ZR-75-1 human breast cancer xenografts; test: Growth and response of human ZR-75-1 breast tumors in OVX nude mice, 7 antiestrogens for 161 days with or without estrone (Example 8); assay type: in vivo; details: estrone-supplemented, 50 μg daily, 161 days
MEASURED PARAMETER: progressing tumors, number of total

smiles_representation=Cl.O=C(c1ccc(OCCN2CCCCC2)cc1)c1c(-c2ccc(O)cc2)sc2cc(O)ccc12 measured_parameter="progressing tumors, number of total" measured="21 of 26"
smiles_representation=CC/C(=C(\c1ccccc1)c1ccc(OCCN(C)C)cc1)c1ccccc1 measured_parameter="progressing tumors, number of total" measured="17 of 26"
smiles_representation=CC/C(=C(\c1ccccc1)c1ccc(/C=C/C(=O)O)cc1)c1ccccc1 measured_parameter="progressing tumors, number of total" measured="20 of 26"
smiles_representation=CC/C(=C(/c1ccc(OCCN(C)C)cc1)c1cccc(O)c1)c1ccccc1 measured_parameter="progressing tumors, number of total" measured="23 of 23"
smiles_representation=CN(C)CCOc1ccc(/C(=C(/CCCl)c2ccccc2)c2ccccc2)cc1 measured_parameter="progressing tumors, number of total" measured="25 of 28"
smiles_representation=CC/C(=C(\c1ccc(I)cc1)c1ccc(OCCN2CCCC2)cc1)c1ccccc1 measured_parameter="progressing tumors, number of total" measured="20 of 28"
